# target-entity: Hexose transporter 1 (Plasmodium falciparum) (UniProt O97467)
# assay-explanation: ST_JUDE_LEISH: Cytotoxicity at 2uM final concentration against transgenic Leishmania Mexicana promastigotes LmPfHT that are glucose transport deficient and complemented with the Plasmodium falciparum hexose transporter. Activity is measured by DNA content using SYBR green in vitro
# Assay type: functional

{"compound": "O=C(/C=C/c1ccc(Cl)c(Cl)c1)NCCCCCN1CCCC(CNC(=O)Nc2ccc(Oc3ccccc3)cc2)C1 (stereo not given)", "readout-units": "%", "inhibition": 0.69}
{"compound": "COc1ccc(O)c(-c2sc(N=C(N)N)nc2-c2ccccc2)c1", "readout-units": "%", "inhibition": 2.67}
{"compound": "O=C(Cc1n[nH]c(=O)c2ccccc12)Nc1cccc(C(=O)Nc2cccc(C(F)(F)F)c2)c1", "readout-units": "%", "inhibition": 4.12}
{"compound": "CCc1c(C)c(C#N)c2nc3ccccc3n2c1NCc1ccco1", "readout-units": "%", "inhibition": 4.23}
{"compound": "CC(=O)Nc1ccc(OCCCCN(Cc2ccccc2OC(F)(F)F)c2ccc(C(F)(F)F)c(C#N)c2)c(Cl)c1", "readout-units": "%", "inhibition": 4.12}
{"compound": "CCOc1cc(C)ccc1C1CCN(CCCCNC(=O)c2ccc(-c3ccc(Cl)cn3)cc2)CC1", "readout-units": "%", "inhibition": -0.06}
{"compound": "COc1ccc(Nc2cc(C)nc(Nc3ccc(NC(C)=O)cc3)n2)cc1", "readout-units": "%", "inhibition": 67.4}
{"compound": "O=C(/C=C/c1ccc(Cl)cc1)NCCCCCN1CCCC(C(=O)Nc2ccc(Cl)cc2)C1 (stereo not given)", "readout-units": "%", "inhibition": 5.61}
{"compound": "Fc1ccc2[nH]c(-c3ccc(-c4ccc(CN5CCN(CCN6CCOCC6)CC5)cc4)cc3)nc2c1", "readout-units": "%", "inhibition": 4.38}
{"compound": "FC(F)(F)c1cccc(Nc2nc3ccccc3nc2Nc2cccc(C(F)(F)F)c2)c1", "readout-units": "%", "inhibition": 0.5}
{"compound": "CCNc1cc(C(=O)N[C@@H](Cc2ccccc2)[C@H](O)CNC(C)(C)Cc2cccc(OC)c2)cc(N2CCCC2=O)c1", "readout-units": "%", "inhibition": -1.02}
{"compound": "Cc1nc2nc(N)nc(N)c2c(C)c1Cc1c(Cl)cccc1Cl", "readout-units": "%", "inhibition": 10.7}
{"compound": "CN(C)Cc1ccc(-c2cccc(NC(=O)c3cccc(Cl)c3)c2)cc1", "readout-units": "%", "inhibition": 1.66}
{"compound": "CN(C)C(=O)CN1CCN(c2ncnc(N3CCc4c([nH]c5ccccc45)[C@@H]3c3ccc4c(c3)CCO4)n2)CC1", "readout-units": "%", "inhibition": 1.61}
{"compound": "CN(C)CCCNCc1ccc(-c2ccc(CNCCOc3ccccc3)cc2)cc1", "readout-units": "%", "inhibition": 4.11}
{"compound": "CC(C)c1cc2c(cc1O)C(Cc1ccccc1Cl)N(C)CC2 (stereo not given)", "readout-units": "%", "inhibition": -0.25}
{"compound": "O=C(Nc1ccc(Cl)cc1)Nc1cccc(-c2cccc(-c3nc4cc(F)ccc4[nH]3)c2)c1", "readout-units": "%", "inhibition": 6.99}
{"compound": "N#CC(c1ccc(F)cc1)c1ccc2c(C(F)(F)F)cc(C(F)(F)F)nc2n1 (stereo not given)", "readout-units": "%", "inhibition": 4.6}
{"compound": "CC(C)Sc1nc2c(c(=O)n1Cc1ccco1)C1(CCCCC1)Cc1ccccc1-2", "readout-units": "%", "inhibition": 2.03}
{"compound": "CNCCNCc1cccc(-c2ccc(-c3nc4cc(C(F)(F)F)ccc4[nH]3)s2)c1", "readout-units": "%", "inhibition": 3.82}
